# Test system: isolated rat colonic crypts
# Assay explanation: Net fluid movement (Jv) in in vitro perfused rat colonic crypts
# Assay type: cell-based
# Run conditions: Rattus norvegicus, read-out: EC50, attenuation of forskolin-induced net fluid secretion; forskolin 10 μM; 0.1 mM Ca^2+; compound in lumen
Structures can show the parent of a compound that is named as a salt.
Measured parameter: pEC50
pEC50 field: float, defined as -log10 of concentration (mol/L).

Q) # input molecule: COc1cccc([C@@H](C)NCCCc2ccccc2Cl)c1.Cl [Compound A, HCl] ; wanted: its pEC50
A) 10.63

Q) Name the recorded pEC50 for COc1cccc(C(C)NCCCc2ccccc2Cl)c1 (stereo not drawn) [Compound A, S-stereoisomer, HCl] .
A) 9.12
